Target: T1, cynomolgus BLyS (full length, arginine to histidine at position 132) on CHO-K1 cells (cynomolgus, UniProt Q9Y275 1-285 (human entry))
T1 construct: also called cyno BLyS; CHO-K1 cynoBLyS
T1 chain: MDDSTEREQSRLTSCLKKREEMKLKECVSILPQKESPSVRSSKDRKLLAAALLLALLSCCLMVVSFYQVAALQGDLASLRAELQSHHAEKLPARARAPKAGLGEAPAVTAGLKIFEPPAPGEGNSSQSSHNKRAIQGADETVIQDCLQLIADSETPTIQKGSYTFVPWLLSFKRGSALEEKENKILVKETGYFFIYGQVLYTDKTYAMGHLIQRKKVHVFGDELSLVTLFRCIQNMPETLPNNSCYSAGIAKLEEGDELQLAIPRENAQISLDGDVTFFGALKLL
Experiment: flow cytometry, CHO-K1 cynoBLyS cells, antibody 0 nM
quantity_name: MFI (MFI)

97A3C2H4 (antibody, V domains shown, Mouse hybridoma monoclonal antibody purified on Protein G) VH: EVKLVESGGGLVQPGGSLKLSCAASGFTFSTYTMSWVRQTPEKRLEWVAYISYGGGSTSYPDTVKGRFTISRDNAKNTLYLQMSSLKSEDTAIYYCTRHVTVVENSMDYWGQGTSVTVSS VL: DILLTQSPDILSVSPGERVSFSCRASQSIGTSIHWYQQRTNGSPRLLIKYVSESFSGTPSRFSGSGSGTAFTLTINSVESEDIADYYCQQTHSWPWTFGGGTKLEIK    20
35E6F7C3 (antibody, V domains shown, Mouse hybridoma monoclonal antibody purified on Protein G) VH: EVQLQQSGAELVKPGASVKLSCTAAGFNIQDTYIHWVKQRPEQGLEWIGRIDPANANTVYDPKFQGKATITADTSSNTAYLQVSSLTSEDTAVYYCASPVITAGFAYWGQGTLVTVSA VL: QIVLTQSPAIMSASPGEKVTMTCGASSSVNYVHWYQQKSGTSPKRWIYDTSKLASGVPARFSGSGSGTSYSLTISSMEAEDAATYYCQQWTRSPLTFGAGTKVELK    20.3
L1D12 (antibody, V domains shown, From a human naive scFv phage library; also called human BLyS antibody L1D12; LID12) VH: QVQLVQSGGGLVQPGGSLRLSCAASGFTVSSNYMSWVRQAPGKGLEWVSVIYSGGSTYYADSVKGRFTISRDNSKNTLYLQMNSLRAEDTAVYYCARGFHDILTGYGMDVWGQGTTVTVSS VL: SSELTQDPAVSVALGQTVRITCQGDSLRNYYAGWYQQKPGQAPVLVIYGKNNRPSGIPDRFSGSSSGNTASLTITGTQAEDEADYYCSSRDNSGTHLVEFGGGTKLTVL    21.2
2-1G11 (antibody, V domains shown, From a human naive scFv phage library; also called human BLyS antibody 2-1G11) VH: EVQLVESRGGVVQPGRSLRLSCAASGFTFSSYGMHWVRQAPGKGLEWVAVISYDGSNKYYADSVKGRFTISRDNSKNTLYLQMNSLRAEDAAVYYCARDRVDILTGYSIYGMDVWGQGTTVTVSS VL: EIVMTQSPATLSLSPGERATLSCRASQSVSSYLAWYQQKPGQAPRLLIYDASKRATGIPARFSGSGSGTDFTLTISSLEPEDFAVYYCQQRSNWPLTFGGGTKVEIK    21.2
111D10D6G3 (antibody, V domains shown, Mouse hybridoma monoclonal antibody purified on Protein G) VH: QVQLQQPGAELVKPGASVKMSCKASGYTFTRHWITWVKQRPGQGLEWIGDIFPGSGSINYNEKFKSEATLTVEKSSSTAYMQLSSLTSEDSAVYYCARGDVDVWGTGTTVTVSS VL: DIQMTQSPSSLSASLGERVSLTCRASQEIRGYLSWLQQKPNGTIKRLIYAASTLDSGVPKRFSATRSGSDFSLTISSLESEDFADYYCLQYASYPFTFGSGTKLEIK    20.4
78C11D2D12 (antibody, V domains shown, Mouse hybridoma monoclonal antibody purified on Protein G) VH: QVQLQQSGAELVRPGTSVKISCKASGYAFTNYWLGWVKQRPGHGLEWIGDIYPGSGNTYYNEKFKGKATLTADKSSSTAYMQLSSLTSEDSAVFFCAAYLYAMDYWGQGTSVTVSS VL: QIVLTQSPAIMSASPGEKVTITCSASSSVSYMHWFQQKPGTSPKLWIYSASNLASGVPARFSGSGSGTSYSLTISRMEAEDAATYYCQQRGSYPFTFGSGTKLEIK    20.2
89A2G5E7 (antibody, V domains shown, Mouse hybridoma monoclonal antibody purified on Protein G) VH: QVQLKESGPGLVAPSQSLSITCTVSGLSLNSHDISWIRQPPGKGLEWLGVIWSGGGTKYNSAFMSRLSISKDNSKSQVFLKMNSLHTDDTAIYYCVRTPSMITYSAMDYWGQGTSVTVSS VL: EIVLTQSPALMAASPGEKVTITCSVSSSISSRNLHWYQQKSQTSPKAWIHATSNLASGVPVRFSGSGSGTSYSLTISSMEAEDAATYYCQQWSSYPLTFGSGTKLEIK    21.2
L9G7 (antibody, V domains shown, From a human naive scFv phage library; also called human BLyS antibody L9G7) VH: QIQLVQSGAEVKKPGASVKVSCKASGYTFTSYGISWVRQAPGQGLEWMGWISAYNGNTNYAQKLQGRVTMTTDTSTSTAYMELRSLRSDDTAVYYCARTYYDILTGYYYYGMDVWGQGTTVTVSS VL: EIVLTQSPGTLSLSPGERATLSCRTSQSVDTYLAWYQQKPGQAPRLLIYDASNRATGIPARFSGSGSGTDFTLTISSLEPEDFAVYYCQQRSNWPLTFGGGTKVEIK    20.6
97E7B3F2 (antibody, V domains shown, Mouse hybridoma monoclonal antibody purified on Protein G) VH: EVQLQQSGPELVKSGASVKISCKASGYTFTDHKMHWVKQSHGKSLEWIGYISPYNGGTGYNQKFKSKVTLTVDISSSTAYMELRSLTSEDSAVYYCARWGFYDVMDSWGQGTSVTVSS VL: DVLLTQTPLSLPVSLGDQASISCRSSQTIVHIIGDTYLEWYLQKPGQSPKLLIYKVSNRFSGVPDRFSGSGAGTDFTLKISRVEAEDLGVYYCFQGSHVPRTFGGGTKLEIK    22.8
20D1B6E9E5 (antibody, V domains shown, Mouse hybridoma monoclonal antibody purified on Protein G) VH: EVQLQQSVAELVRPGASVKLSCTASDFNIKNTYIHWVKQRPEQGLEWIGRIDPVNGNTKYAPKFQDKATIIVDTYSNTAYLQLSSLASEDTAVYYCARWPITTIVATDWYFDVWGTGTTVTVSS VL: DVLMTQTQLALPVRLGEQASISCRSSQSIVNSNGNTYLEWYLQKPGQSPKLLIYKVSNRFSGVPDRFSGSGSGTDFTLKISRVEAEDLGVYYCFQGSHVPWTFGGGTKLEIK    19.8
